- Experimental Setup: in toluene, 313.15 K
Measurement Label: solubility (mole fraction)
Just the number.

State, in one line, measured solubility (mole fraction) of COC(=O)c1ccnc(N)c1 0.0282

* * *

- Experimental Setup: in ethanol, 303.15 K
Measurement Label: solubility (mole fraction)
Just the number.

State, in one line, measured solubility (mole fraction) of COC(=O)c1ccnc(N)c1 0.00821

* * *

- Experimental Setup: in isopropanol, 283.15 K
Measurement Label: solubility (mole fraction)
Just the number.

State, in one line, measured solubility (mole fraction) of COC(=O)c1ccnc(N)c1 0.0048

* * *

- Experimental Setup: in water, 283.15 K
Measurement Label: solubility (mole fraction)
Just the number.

State, in one line, measured solubility (mole fraction) of COC(=O)c1ccnc(N)c1 0.00117
